Catalogue of binders with associated HSA Binding (RU)
molecular target: T1, human serum albumin (HSA), full length (human, UniProt P02768 25-609); test: SPR, immobilized HSA, 500 nM Adnectin, 25 C
T1 construct: mature; Immobilized on CM5 chip (SPR) or coated on plates (ELISA)
T1 sequence (P02768 25-609): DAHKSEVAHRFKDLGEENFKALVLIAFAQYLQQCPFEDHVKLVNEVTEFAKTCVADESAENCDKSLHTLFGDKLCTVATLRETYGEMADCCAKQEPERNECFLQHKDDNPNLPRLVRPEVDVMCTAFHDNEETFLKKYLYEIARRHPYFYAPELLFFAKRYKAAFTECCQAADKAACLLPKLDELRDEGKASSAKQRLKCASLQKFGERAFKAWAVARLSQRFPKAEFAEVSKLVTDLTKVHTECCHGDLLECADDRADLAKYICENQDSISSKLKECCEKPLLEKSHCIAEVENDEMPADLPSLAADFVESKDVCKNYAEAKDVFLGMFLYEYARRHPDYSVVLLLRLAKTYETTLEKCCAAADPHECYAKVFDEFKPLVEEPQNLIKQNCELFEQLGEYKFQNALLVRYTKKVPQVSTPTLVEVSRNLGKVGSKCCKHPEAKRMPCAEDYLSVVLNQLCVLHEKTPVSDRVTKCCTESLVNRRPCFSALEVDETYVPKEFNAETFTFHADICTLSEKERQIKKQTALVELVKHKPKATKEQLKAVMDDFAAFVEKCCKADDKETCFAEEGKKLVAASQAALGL
experimental_endpoint: HSA Binding (RU)

• ADX_6727_F07 (Y44S/K85A) (designed binder, Full His6-tagged entry) MGVSDVPRDLEVVAATPTSLLISWDAPAVTVRYYRITYGREVQKYSDLGPLYISQEFTVPGSKSTATISGLKPGVDYTITVYAVTGSGESPASSAPISINYRTEIDKPSQHHHHHH = 35
• ADX_6727_B04 (Y35S/K85S) (designed binder, Full His6-tagged entry) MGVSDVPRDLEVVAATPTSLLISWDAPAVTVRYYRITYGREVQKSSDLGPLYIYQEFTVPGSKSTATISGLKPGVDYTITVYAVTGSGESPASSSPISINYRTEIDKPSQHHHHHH = 23
